test system: MDR1-MDCK cell monolayers; experiment: Blood-brain-barrier (BBB) penetration potential via MDCK-MDR1 permeability assay; details: A-B direction
Tick criterion met if MDCK-MDR1: % Recov A-B is 90% or greater. Tick criterion not met if MDCK-MDR1: % Recov A-B is less than 90%.

Inquiry: Does CN(c1ccc(-c2ccc(-n3cnc(Cl)c3)cc2O)nn1)C1CC2CC(F)(F)C(C1)N2 (single isomer, unassigned) [Compound 37A] have a reported MDCK-MDR1: % Recov A-B of at least 90%?
Reply text: criterion not met

Inquiry: Does CN(c1ccc(-c2cc3ccncc3s2)nn1)[C@@H]1C[C@H]2CC[C@H](N2)[C@@H]1F [Compound 65A] have a reported MDCK-MDR1: % Recov A-B of at least 90%?
Reply text: criterion met

Inquiry: Does CN(c1ccc(-c2cc3ncccc3cc2O)nn1)[C@H]1C[C@@H]2CC[C@@H](N2)[C@H]1F [Compound 73B] have a reported MDCK-MDR1: % Recov A-B of at least 90%?
Reply text: criterion not met

Inquiry: Does COc1cc(-c2ccc(-c3ccc(N(C)[C@H]4CC5N[C@@H](C4)CC5(F)F)nn3)c(O)c2)cnn1 (single isomer, unassigned) [Compound 2B] have a reported MDCK-MDR1: % Recov A-B of at least 90%?
Reply text: criterion not met

Inquiry: Does CN(c1ccc(-c2ccc(-c3cn[nH]c3)cc2O)nn1)C1CC2COCC(N2)C1F (stereo not shown) [Compound 8A] have a reported MDCK-MDR1: % Recov A-B of at least 90%?
Reply text: criterion not met

Inquiry: Does CN(c1ccc(-c2ccc(-c3cc[nH]n3)cc2O)nn1)[C@H]1C[C@@H]2CC[C@@H](N2)[C@H]1F (single isomer, unassigned) [Compound 33B] have a reported MDCK-MDR1: % Recov A-B of at least 90%?
Reply text: criterion not met

Inquiry: Does CN(c1ccc(-c2ccc(-c3cnn(C)c3)cc2O)nn1)[C@H]1C[C@@H]2CCC[C@@H](N2)[C@H]1F [Compound 15B] have a reported MDCK-MDR1: % Recov A-B of at least 90%?
Reply text: criterion not met

Inquiry: Does Cc1cnc(-c2ccc(-c3ccc(N(C)[C@@H]4C[C@H]5CC[C@H](N5)[C@@H]4F)nn3)c(O)c2)o1 [Compound 48A] have a reported MDCK-MDR1: % Recov A-B of at least 90%?
Reply text: criterion not met

Inquiry: Does COc1cc(-c2ccc(-c3ccc(N(C)[C@H]4CC5N[C@@H](C4)CC5(F)F)nn3)c(O)c2)cnn1 (single isomer, unassigned) [Compound 2A] have a reported MDCK-MDR1: % Recov A-B of at least 90%?
Reply text: criterion not met

Inquiry: Does CN(c1ccc(-c2cc3c(=O)n(C)cnc3cc2O)nn1)[C@@H]1C[C@H]2CC[C@H](N2)[C@@H]1F [Compound 85A] have a reported MDCK-MDR1: % Recov A-B of at least 90%?
Reply text: criterion met

====

test system: MDR1-MDCK cell monolayers; conditions: dog, MDCK-MDR1, 120 min, 5 μM, pH 7.4
measure: MDCK-MDR1: % Recov A-B (%)
Supply the numeric figure in %, leaving out any unit text.

CN(c1ccc(-c2ccc(-n3ccnc3)cc2O)nn1)[C@H]1C[C@@H]2CC(F)(F)[C@H](C1)N2 [Compound 13B] = 90

MDCK-MDR1: % Recov A-B for MDR1-MDCK cell monolayers with input CN(c1ccc(-c2ccc(C3CC3)cc2O)nn1)[C@H]1C[C@@H]2CC[C@@H](N2)[C@H]1F (single isomer, unassigned) [Compound 31B] equals 43

MDCK-MDR1: % Recov A-B for MDR1-MDCK cell monolayers with input CC(=O)Nc1ccc(-c2ccc(N(C)[C@H]3C[C@@H]4CC[C@@H](N4)[C@H]3F)nn2)c(O)c1 (single isomer, unassigned) [Compound 32B] equals 95

MDCK-MDR1: % Recov A-B for MDR1-MDCK cell monolayers with input CN(c1ccc(-c2cc3ccn(C)c(=O)c3cc2O)nn1)[C@H]1C[C@@H]2CC[C@H]([C@H]1F)N2C (single isomer, unassigned) [Compound 97B] equals 85

MDCK-MDR1: % Recov A-B for MDR1-MDCK cell monolayers with input CN(c1ccc(-c2cc3ccn(C)c(=O)c3s2)nn1)[C@H]1C[C@@H]2CC[C@@H](N2)[C@H]1F (single isomer, unassigned) [Compound 67B] equals 91

MDCK-MDR1: % Recov A-B for MDR1-MDCK cell monolayers with input CN(C)C(=O)c1cc2cc(O)c(-c3ccc(N(C)[C@@H]4C[C@H]5CC[C@@H]([C@@H]4F)N5C)nn3)cc2o1 (single isomer, unassigned) [Compound 106A] equals 95

====

system: mHTT protein in GM04724 (CAG 70/20) Huntington's disease patient lymphoblast cells; test: mHTT protein assay, 2B7-MW1 assay via Mesoscale Discovery (MSD); assay type: cell-based, human; settings: GM04724 Huntington's disease patient lymphoblasts
Here the recorded EC50 is given for each entry.

Recorded EC50, per entry:
CN(C)C(=O)c1cc2cc(O)c(-c3ccc(N(C)[C@H]4C[C@@H]5CC[C@@H](N5)[C@H]4F)nn3)cc2o1 [Compound 9B] = 101 to 500 nM
C#Cc1ccc(-c2ccc(N(C)[C@@H]3C[C@H]4CC[C@H](N4)[C@@H]3F)nn2)c(O)c1 [Compound 10A] = 0.01 to 15 nM
CN(c1ccc(-c2ccc(-n3ccnc3)cc2O)nn1)[C@H]1C[C@@H]2CC(F)(F)[C@H](C1)N2 [Compound 13B] = 101 to 500 nM
CN(c1ccc(-c2ccc(C#N)cc2O)nn1)[C@H]1C[C@@H]2CC[C@@H](N2)[C@H]1F [Compound 38B] = 16 to 50 nM
CN(c1ccc(-c2ccc(-c3cc[nH]n3)cc2O)nn1)[C@H]1C[C@@H]2CC[C@@H](N2)[C@H]1F (single isomer, unassigned) [Compound 33B] = 0.01 to 15 nM

EC50 for mHTT protein in GM04724 (CAG 70/20) Huntington's disease patient lymphoblast cells with input CN(c1ccc(-c2ccc(-c3ccccn3)cc2O)nn1)[C@@H]1C[C@H]2CCC[C@H](N2)[C@@H]1F [Compound 23A] equals 51 to 100 nM

EC50 for mHTT protein in GM04724 (CAG 70/20) Huntington's disease patient lymphoblast cells with input Cc1cnc(-c2ccc(-c3ccc(N(C)[C@@H]4C[C@H]5CC[C@H](N5)[C@@H]4F)nn3)c(O)c2)o1 [Compound 48A] equals 51 to 100 nM

EC50 for mHTT protein in GM04724 (CAG 70/20) Huntington's disease patient lymphoblast cells with input CN(c1ccc(-c2ccc(-c3cnn(C)c3)cc2O)nn1)C1CC2COCC(N2)C1F (single isomer, unassigned) [Compound 80B] equals 16 to 50 nM

EC50 for mHTT protein in GM04724 (CAG 70/20) Huntington's disease patient lymphoblast cells with input CN(c1ccc(-c2ccc(-n3nccn3)cc2O)nn1)[C@H]1C[C@@H]2CC[C@@H](N2)[C@H]1F [Compound 90B] equals 0.01 to 15 nM

EC50 for mHTT protein in GM04724 (CAG 70/20) Huntington's disease patient lymphoblast cells with input CN(c1ccc(-c2ccc(-c3cnn(C)c3)cc2O)nn1)[C@H]1C[C@H]2CC(F)(F)[C@H](C1)N2 (single isomer, unassigned) [Compound 3B] equals 51 to 100 nM

EC50 for mHTT protein in GM04724 (CAG 70/20) Huntington's disease patient lymphoblast cells with input CN(c1ccc(-c2ccc(C#N)cc2O)nn1)[C@@H]1C[C@H]2CC[C@H](N2)[C@@H]1F [Compound 38A] equals 101 to 500 nM

EC50 for mHTT protein in GM04724 (CAG 70/20) Huntington's disease patient lymphoblast cells with input CN(c1ccc(-c2cc3ccn(C)c(=O)c3cc2O)nn1)[C@H]1C[C@@H]2CC[C@@H](N2)[C@H]1F [Compound 84B] equals 0.01 to 15 nM

EC50 for mHTT protein in GM04724 (CAG 70/20) Huntington's disease patient lymphoblast cells with input CN(c1ccc(-c2cc3ncccc3cc2O)nn1)[C@@H]1C[C@H]2CC(F)(F)[C@@H](C1)N2 [Compound 46A] equals 16 to 50 nM

EC50 for mHTT protein in GM04724 (CAG 70/20) Huntington's disease patient lymphoblast cells with input CN(c1ccc(-c2cc3c(=O)n(C)cnc3cc2O)nn1)[C@H]1C[C@@H]2CC[C@@H](N2)[C@H]1F [Compound 85B] equals 0.01 to 15 nM

====

test system: mHTT protein in GM04724 (CAG 70/20) Huntington's disease patient lymphoblast cells; experiment: mHTT protein assay, 2B7-MW1 assay via Mesoscale Discovery (MSD); format: cell-based, human; details: GM04724 Huntington's disease patient lymphoblasts
pEC50: −log10 of the molar value.
Here the recorded pEC50 is given for each entry.

Recorded pEC50, per entry:
CN(c1ccc(-c2ccc(-n3ccnn3)cc2O)nn1)[C@H]1C[C@@H]2CC[C@@H](N2)[C@H]1F [Compound 61B] = 7.82 to 11.00
Cc1nc2cc(O)c(-c3ccc(N(C)[C@H]4C[C@@H]5CC[C@@H](N5)[C@H]4F)nn3)cc2o1 (single isomer, unassigned) [Compound 40B] = 7.82 to 11.00
CN(c1ccc(-c2ccc(-c3cnc(C#N)cn3)cc2O)nn1)[C@@H]1C[C@H]2CCC[C@H](N2)[C@@H]1F [Compound 28A] = 7.30 to 7.80
CCN(c1ccc(-c2ccc(-c3cn[nH]c3)cc2O)nn1)[C@@H]1C[C@H]2CC[C@H](N2)[C@@H]1F [Compound 12A] = 7.30 to 7.80
CN(c1ccc(-c2ccc(-n3nccn3)cc2O)nn1)[C@H]1C[C@@H]2CCC[C@@H](N2)[C@H]1F [Compound 5B] = 7.82 to 11.00
CN(c1ccc(-c2ccc(C#N)cc2O)nn1)[C@H]1C[C@@H]2CCC[C@@H](N2)[C@H]1F [Compound 39B] = 6.30 to 7.00

pEC50 measured on CN(c1ccc(-c2cc3cccnc3cc2O)nn1)[C@H]1C[C@@H]2CCC[C@@H](N2)[C@H]1F [Compound 41B] = 7.82 to 11.00
